Data credit: the RNAGym collection of RNA variant scans (doi:10.7554/elife.90254)

B1: OR4K15 (parent)
chain: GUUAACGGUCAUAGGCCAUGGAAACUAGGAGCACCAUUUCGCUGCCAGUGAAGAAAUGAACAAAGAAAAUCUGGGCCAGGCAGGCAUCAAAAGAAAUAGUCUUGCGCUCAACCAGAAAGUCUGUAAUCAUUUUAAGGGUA

variants of: B1; assay: self-cleavage, relative activity (ratio to wild type); higher = more cleavage; in vitro, sequencing; the parent is a self-cleaving ribozyme
Would you mind classing the entries by self-cleavage? Ranges: lower level = under 0.3, middle level = from 0.3 up to 1, upper level = 1 and over

| Mut | Category |
| --- | --- |
| A126G U127A | upper level |
| A47U A62U | upper level |
| A30G A59U | upper level |
| A11G C112A | lower level |
| A78G A140G | middle level |
| A52G U97G | upper level |
| G21A U127C | upper level |
| A114G A135G | middle level |
| A60G G79U | lower level |
